Tested on: Human primary melanocytes
Test: melanin content assay (MCA)
Format: cell-based
Details: 72 hours incubation with active(s), wt% of active(s) as listed per example, OD 405nm, untreated cells = 100% melanin content
Experimental: In-vitro studies on the effect of the combination of the actives on melanin inhibition using melanin content assay (MCA) was used. The method is described below. Human primary melanocytes were grown in melanocytes growth medium (MGM) with human melanocyte growth supplement. […] At the end of the incubation period, cell viability was determined using the calcein method. After calcein fluorescence readings were obtained, drained the cells and added fresh 0.15 ml of 1N NaOH (in 10% DMSO) per well. […]
The reader will find reported % melanin inhibition values listed item by item below.
Readout Label: % melanin inhibition (%)

In [3]: df
Out[3]:
                                   compound              target_system  experimental_value
0           NC(=O)c1cccnc1 [D, Niacinamide]  Human primary melanocytes                 6.1
1           NC(=O)c1cccnc1 [C, Niacinamide]  Human primary melanocytes                 9.2
2  CCCCCCC(O)CCCCCCCCCCC(=O)O (stereo not shown) [E, 12-hydroxystearic acid]  Human primary melanocytes                 4.1
3           NC(=O)c1cccnc1 [B, Niacinamide]  Human primary melanocytes                 7.4
